Below, each of the compounds is paired with its reported Therapeutic ratio (%) value.
- Tested on: TNB-colitis
- test_description: Therapeutic effects on TNB-colitis (MPO in colon)
- Format: in vivo, rat
- measurement_context: 100 mg/kg/day oral, once a day for 11 days
Only the number, expressed in %, is required.

As a guide, the following entries are already answered.
line_notation: CCNc1nc2c(Cc3cccnc3)c(C)c(O)c(C)c2s1.Cl.Cl
data_value: 41
--
line_notation: CCNc1nc2c(C)c(Cc3cccnc3)c(O)c(C)c2s1
data_value: 32
--
line_notation: Cc1cc(O)c(C)c2sc(NCc3cccnc3)nc12
data_value: 53
--
line_notation: Cc1c(O)c(C)c2sc(NCc3cccnc3)nc2c1C
data_value: 31

Attention now turns to another entry.
Give the reported Therapeutic ratio (%) for CCNc1nc2c(C)c(C)c(O)c(Cc3cccnc3)c2s1 (system: TNB-colitis). 40
